# experimental-protocol: Cyclic voltammetry (CV) of anolyte candidates in a three-electrode cell
# Format: physicochemical
# measurement-context: MeCN/TBABF4; 0.01M substrate, 0.10M support; 2nd cycle
observable: ipc1/ipa1 (10 mV/s)

1. CC(C)(C)OC(=O)c1cc[n+]([O-])cc1 [Compound 4d] :: 1.17
2. COC(=O)c1ccncc1 [Compound 3a, methyl isonicotinate] :: 1.67
3. CC(C)(C)OC(=O)c1cc[n+]([B-](F)(F)F)cc1 [Compound 5d] :: 1.05
4. CC(C)(C)OC(=O)c1ccncc1 [Compound 3d] :: 1.09
5. COC(=O)c1cc[n+]([O-])cc1 [Compound 4a] :: 1.41
6. COC(=O)c1cc[n+]([B-](F)(F)F)cc1 [Compound 5a] :: 1.10
7. CCOC(=O)c1ccncc1 [Compound 3b] :: 1.28
8. CC(C)OC(=O)c1ccncc1 [Compound 3c] :: 1.10

----------
# experimental-protocol: Cyclic voltammetry (CV) of anolyte candidates in a three-electrode cell
# Format: physicochemical
# measurement-context: MeCN/LiBF4; 0.01M substrate, 0.10M support; 2nd cycle; second couple
observable: ipc2/ipa2 (10 mV/s)

1. CC[n+]1ccc(C(=O)OC)cc1.[I-] :: 0.95
2. CCOC(=O)c1cc[n+](CC)cc1.[I-] :: 0.94
3. CC[n+]1ccc(C(=O)OC(C)(C)C)cc1 :: 0.93
4. CC[n+]1ccc(C(=O)OC)cc1 [Compound 8a] :: 0.95
5. CC[n+]1ccc(C(=O)OC)cc1 [Compound 7a] :: 0.96
6. CCOC(=O)c1cc[n+](CC)cc1 :: 0.96
7. CC[n+]1ccc(C(=O)OC(C)C)cc1 :: 0.95

----------
Readings of ipc1/ipa1 (10 mV/s) for the listed compounds
# experimental-protocol: Cyclic voltammetry (CV) of anolyte candidates in a three-electrode cell
# Type: physicochemical
# measurement-context: MeCN/LiBF4; 0.01M substrate, 0.10M support; 2nd cycle
observable: ipc1/ipa1 (10 mV/s)

1) CC[n+]1ccc(C(=O)OC)cc1 [Compound 7a] :: 0.98
2) CC[n+]1ccc(C(=O)OC)cc1 [Compound 8a] :: 0.98
3) CC(C)(C)OC(=O)c1cc[n+]([B-](F)(F)F)cc1 [Compound 5d] :: 1.11
4) CCOC(=O)c1cc[n+]([B-](F)(F)F)cc1 [Compound 5b] :: 1.08

----------
Measured ipc1/ipa1 (100 mV/s), listed per entry for reference.
# experimental-protocol: Cyclic voltammetry (CV) of anolyte candidates in a three-electrode cell
# Format: physicochemical
# measurement-context: MeCN/TBABF4; 0.01M substrate, 0.10M support; 2nd cycle
observable: ipc1/ipa1 (100 mV/s)

1. COC(=O)c1cc[n+]([O-])cc1 :: 1.05
2. O=C(OCC(F)(F)F)c1ccncc1 :: 1.91
3. COC(=O)c1cc[n+]([B-](F)(F)F)cc1 :: 1.03
4. CC(C)OC(=O)c1ccncc1 :: 1.02
5. CC(C)(C)OC(=O)c1cc[n+]([O-])cc1 :: 1.00
6. CCOC(=O)c1ccncc1 :: 1.03
7. COC(=O)c1ccncc1 [Compound 3a, methyl isonicotinate] :: 1.15
8. CN(C)C(=O)c1ccncc1 :: 1.18

----------
# experimental-protocol: Cyclic voltammetry (CV) of anolyte candidates in a three-electrode cell
# Format: physicochemical
# measurement-context: MeCN/TBABF4; 0.01M substrate, 0.10M support; Ag/Ag+ reference; (E1c+E1a)/2; — = no anodic current observed
Recorded E1^0 values for a group of compounds are listed next.
observable: E1^0

1) COC(=O)c1cc[n+]([O-])cc1 :: −1.96 V
2) COC(=O)c1ccncc1 [Compound 3a, methyl isonicotinate] :: −2.16 V
3) CN(C)C(=O)c1ccncc1 :: −2.52 V
4) CCOC(=O)c1ccncc1 :: −2.20 V
5) CC(C)(C)OC(=O)c1cc[n+]([B-](F)(F)F)cc1 :: −1.45 V
6) COC(=O)c1cc[n+]([B-](F)(F)F)cc1 :: −1.42 V

----------
# experimental-protocol: Cyclic voltammetry (CV) of anolyte candidates in a three-electrode cell
# Type: physicochemical
# measurement-context: MeCN/LiBF4; 0.01M substrate, 0.10M support; 2nd cycle
observable: ipc1/ipa1 (100 mV/s)

1) CC(C)OC(=O)c1cc[n+]([B-](F)(F)F)cc1 :: 1.06
2) CC(C)(C)OC(=O)c1cc[n+]([B-](F)(F)F)cc1 :: 1.06
3) CCOC(=O)c1cc[n+]([B-](F)(F)F)cc1 :: 1.06
4) COC(=O)c1cc[n+]([B-](F)(F)F)cc1 :: 1.02

----------
# experimental-protocol: Cyclic voltammetry (CV) of anolyte candidates in a three-electrode cell
# Type: physicochemical
# measurement-context: MeCN/TBABF4; 0.01M substrate, 0.10M support; Ag/Ag+ reference; (E1c+E1a)/2; — = no anodic current observed
E1^0 by entry:
observable: E1^0 (V)

1) CC(C)(C)OC(=O)c1cc[n+]([O-])cc1 :: −2.01
2) COC(=O)c1ccccn1 [Compound 1a, Methyl picolinate] :: −2.36
3) O=C(OCC(F)(F)F)c1ccncc1 :: −2.03
4) CC(C)(C)OC(=O)c1ccncc1 :: −2.24
5) CC(C)OC(=O)c1ccncc1 :: −2.20

----------
# experimental-protocol: Cyclic voltammetry (CV) of anolyte candidates in a three-electrode cell
# Assay type: physicochemical
# measurement-context: MeCN/TBABF4; scan rate not specified
observable: reversibility of reduction

1. O=C(OC(C(F)(F)F)C(F)(F)F)c1ccncc1 :: highly irreversible
2. O=C(OCC(F)(F)F)c1ccncc1 :: highly irreversible
3. N#CCOC(=O)c1ccncc1 :: highly irreversible

----------
# experimental-protocol: Cyclic voltammetry (CV) of anolyte candidates in a three-electrode cell
# Assay type: physicochemical
# measurement-context: MeCN/LiBF4; 0.01M substrate, 0.10M support; (E1c+E1a)/2; — = no anodic current observed
observable: E1^0 (V)

1) CC[n+]1ccc(C(=O)OC(C)(C)C)cc1 :: −1.15
2) CC[n+]1ccc(C(=O)OC)cc1 [Compound 7a] :: −1.11
3) CCOC(=O)c1cc[n+]([B-](F)(F)F)cc1 :: −1.80
4) COC(=O)c1cc[n+]([B-](F)(F)F)cc1 :: −1.83
5) CC(C)OC(=O)c1cc[n+]([B-](F)(F)F)cc1 :: −1.80
6) CC[n+]1ccc(C(=O)OC(C)C)cc1 :: −1.13
7) CC[n+]1ccc(C(=O)OC)cc1.[I-] :: −1.11
8) CCOC(=O)c1cc[n+](CC)cc1.[I-] :: −1.10
9) CCOC(=O)c1cc[n+](CC)cc1 :: −1.11
10) CC[n+]1ccc(C(=O)OC)cc1 [Compound 8a] :: −1.11
11) CC(C)(C)OC(=O)c1cc[n+]([B-](F)(F)F)cc1 :: −1.84

----------
# experimental-protocol: Cyclic voltammetry (CV) of anolyte candidates in a three-electrode cell
# Type: physicochemical
# measurement-context: MeCN/LiBF4; 0.01M substrate, 0.10M support; 2nd cycle
observable: ipc1/ipa1 (10 mV/s)

1) CC[n+]1ccc(C(=O)OC(C)C)cc1 :: 0.97
2) CCOC(=O)c1cc[n+](CC)cc1.[I-] :: 0.98
3) CCOC(=O)c1cc[n+](CC)cc1 :: 0.99
4) CC[n+]1ccc(C(=O)OC(C)(C)C)cc1 :: 0.99
5) COC(=O)c1cc[n+]([B-](F)(F)F)cc1 :: 1.06
6) CC[n+]1ccc(C(=O)OC)cc1.[I-] :: 0.99
7) CC(C)OC(=O)c1cc[n+]([B-](F)(F)F)cc1 :: 1.09

----------
# experimental-protocol: Cyclic voltammetry (CV) of anolyte candidates in a three-electrode cell
# Type: physicochemical
# measurement-context: MeCN/LiBF4; 0.01M substrate, 0.10M support; (E2c+E2a)/2
observable: E2^0 (V)

1) CCOC(=O)c1cc[n+](CC)cc1.[I-] :: −1.86
2) CC[n+]1ccc(C(=O)OC(C)C)cc1 :: −1.89
3) CC[n+]1ccc(C(=O)OC)cc1 [Compound 8a] :: −1.89
4) CC[n+]1ccc(C(=O)OC)cc1 [Compound 7a] :: −1.88
5) CC[n+]1ccc(C(=O)OC(C)(C)C)cc1 :: −1.93
6) CCOC(=O)c1cc[n+](CC)cc1 :: −1.90
7) CC[n+]1ccc(C(=O)OC)cc1.[I-] :: −1.85

----------
# experimental-protocol: Cyclic voltammetry (CV) of anolyte candidates in a three-electrode cell
# Type: physicochemical
# measurement-context: MeCN with NBu4BF4 (TBABF4) supporting electrolyte; versus Ag/Ag+
observable: reduction potential

1. N#CCOC(=O)c1ccncc1 :: approximately −2.0 V
2. O=C(OC(C(F)(F)F)C(F)(F)F)c1ccncc1 :: approximately −2.0 V
3. COc1ccnc(-c2cc(OC)ccn2)c1 [4,4′-methoxy bipyridine, reference compound] :: −2.6 V
4. O=C(OCC(F)(F)F)c1ccncc1 :: approximately −2.0 V

Data origin, for the record: patent US11056705B2
